TARGET_OF_ASSAY: DNA topoisomerase 4 subunit A [V210L]/B (Bacillus subtilis, UniProt Q45066+Q59192, V210L)
Sequence (Q45066 whole entry V210L): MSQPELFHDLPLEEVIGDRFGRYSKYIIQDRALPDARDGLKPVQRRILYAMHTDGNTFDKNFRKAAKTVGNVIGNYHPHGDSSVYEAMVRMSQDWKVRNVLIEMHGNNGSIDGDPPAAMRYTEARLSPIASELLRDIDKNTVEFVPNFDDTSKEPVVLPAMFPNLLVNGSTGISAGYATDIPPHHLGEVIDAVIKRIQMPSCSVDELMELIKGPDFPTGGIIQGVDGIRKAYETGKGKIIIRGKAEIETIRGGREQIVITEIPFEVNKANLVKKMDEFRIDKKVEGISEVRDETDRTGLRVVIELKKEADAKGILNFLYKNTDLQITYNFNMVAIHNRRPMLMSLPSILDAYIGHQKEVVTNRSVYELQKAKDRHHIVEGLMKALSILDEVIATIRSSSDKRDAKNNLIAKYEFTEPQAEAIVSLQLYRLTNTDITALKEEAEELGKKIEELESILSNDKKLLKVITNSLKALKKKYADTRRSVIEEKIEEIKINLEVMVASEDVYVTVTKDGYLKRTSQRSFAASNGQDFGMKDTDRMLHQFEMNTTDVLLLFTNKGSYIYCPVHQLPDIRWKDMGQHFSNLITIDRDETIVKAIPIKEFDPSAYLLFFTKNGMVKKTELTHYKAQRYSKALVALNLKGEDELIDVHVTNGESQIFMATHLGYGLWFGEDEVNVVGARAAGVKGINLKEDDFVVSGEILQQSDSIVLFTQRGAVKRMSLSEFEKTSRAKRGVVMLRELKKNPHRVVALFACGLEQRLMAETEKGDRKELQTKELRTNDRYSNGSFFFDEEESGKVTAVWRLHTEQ
Sequence (Q59192 whole entry): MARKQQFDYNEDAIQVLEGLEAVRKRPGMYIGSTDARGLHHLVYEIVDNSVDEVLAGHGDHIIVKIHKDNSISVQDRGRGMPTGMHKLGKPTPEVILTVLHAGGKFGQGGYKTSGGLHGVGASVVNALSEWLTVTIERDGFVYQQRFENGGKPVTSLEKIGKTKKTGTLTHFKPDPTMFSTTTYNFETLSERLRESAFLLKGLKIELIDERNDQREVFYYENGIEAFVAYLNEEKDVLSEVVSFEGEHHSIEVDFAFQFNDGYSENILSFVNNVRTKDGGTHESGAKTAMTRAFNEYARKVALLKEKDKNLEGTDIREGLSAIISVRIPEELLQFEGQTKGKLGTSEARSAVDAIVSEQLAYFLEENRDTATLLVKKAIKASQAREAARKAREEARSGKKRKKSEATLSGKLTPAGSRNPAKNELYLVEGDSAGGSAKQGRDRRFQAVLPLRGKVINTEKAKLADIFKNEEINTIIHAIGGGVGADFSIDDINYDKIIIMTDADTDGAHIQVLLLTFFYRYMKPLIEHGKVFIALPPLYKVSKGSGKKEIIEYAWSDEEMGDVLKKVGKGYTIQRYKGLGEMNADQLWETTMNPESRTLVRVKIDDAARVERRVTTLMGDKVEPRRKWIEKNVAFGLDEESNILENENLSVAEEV
TEST_NAME: DNA Topoisomerase IV Assay
REPORTED_CONDITIONS: pH 7.5; 30 °C
pIC50: −log10 of the molar value.
OBSERVED_PROPERTY: pIC50

Value of measured pIC50 for the entry CCc1cc(Nc2cc(=O)n(CCCCO)c(=O)[nH]2)ccc1C : < 3.30

====

TARGET_OF_ASSAY: DNA polymerase III subunit alpha (Bacillus subtilis (strain 168), UniProt O34623)
Sequence (O34623 whole entry): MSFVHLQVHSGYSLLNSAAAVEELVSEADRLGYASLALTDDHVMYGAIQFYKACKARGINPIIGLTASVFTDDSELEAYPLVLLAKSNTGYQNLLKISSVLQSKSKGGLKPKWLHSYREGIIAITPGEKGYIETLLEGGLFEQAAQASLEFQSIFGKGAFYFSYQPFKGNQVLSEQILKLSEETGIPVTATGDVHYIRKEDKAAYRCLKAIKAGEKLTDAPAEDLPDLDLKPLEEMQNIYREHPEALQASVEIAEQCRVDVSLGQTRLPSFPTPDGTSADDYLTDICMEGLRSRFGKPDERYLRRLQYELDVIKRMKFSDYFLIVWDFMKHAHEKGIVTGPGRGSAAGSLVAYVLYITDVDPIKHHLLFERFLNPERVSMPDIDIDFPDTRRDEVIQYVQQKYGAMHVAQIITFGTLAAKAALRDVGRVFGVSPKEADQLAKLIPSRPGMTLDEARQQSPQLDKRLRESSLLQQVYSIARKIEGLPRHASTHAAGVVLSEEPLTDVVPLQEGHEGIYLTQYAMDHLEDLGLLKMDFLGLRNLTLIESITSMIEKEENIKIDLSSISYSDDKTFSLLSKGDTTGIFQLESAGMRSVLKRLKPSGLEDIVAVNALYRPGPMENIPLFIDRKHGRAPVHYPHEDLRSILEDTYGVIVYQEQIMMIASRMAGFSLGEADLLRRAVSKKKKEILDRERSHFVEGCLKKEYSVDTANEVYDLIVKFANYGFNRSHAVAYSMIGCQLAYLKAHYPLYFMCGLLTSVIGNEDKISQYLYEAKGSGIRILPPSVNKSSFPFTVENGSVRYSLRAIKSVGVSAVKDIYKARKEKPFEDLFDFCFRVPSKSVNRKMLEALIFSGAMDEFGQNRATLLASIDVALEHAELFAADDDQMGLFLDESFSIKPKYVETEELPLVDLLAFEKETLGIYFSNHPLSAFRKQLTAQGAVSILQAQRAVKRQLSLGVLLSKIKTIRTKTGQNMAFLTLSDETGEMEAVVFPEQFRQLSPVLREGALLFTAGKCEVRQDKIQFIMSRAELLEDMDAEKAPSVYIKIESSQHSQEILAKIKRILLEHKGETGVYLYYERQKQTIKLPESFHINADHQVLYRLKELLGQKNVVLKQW
TEST_NAME: DNA Polymerase Activity Assay
REPORTED_CONDITIONS: pH 7.5; 30 °C
pKi: −log10 of the molar value.
OBSERVED_PROPERTY: pKi

Value of measured pKi for the entry CCc1cc(Nc2cc(=O)n(CCCCN3CCN(c4c(F)cc5c(=O)c(C(=O)O)cn(C6CC6)c5c4F)CC3C)c(=O)[nH]2)ccc1C (stereo unspecified) : < 3.32
